- Test system: Escherichia coli TOP10
- Assay Comment: shrunken log2 fold change of peptide-encoding DNA abundance (4.5 h post-induction vs induction); higher = less antimicrobial activity (less host growth inhibition)
- Test Settings: time post-induction: 4.5 h; library: site-saturation at positions 5, 18, 19, 20
Observable: shrunken log2 fold change
Simply state the number, no unit and no words.

Here is how some sequences turned out for shrunken log2 fold change.
RRIRSRPPRLPRPRPRPGQKPRP yielded shrunken log2 fold change of 0.0237

Field shrunken log2 fold change (entry RRIRYRPPRLPRPRPRPQWCPRP ) reads -0.219

For reference, reported shrunken log2 fold change for RRIRQRPPRLPRPRPRPNFFPRP stands at 0.313

Reported shrunken log2 fold change of RRIRLRPPRLPRPRPRPHFEPRP : 0.118

New cases:
GET /value?item= RRIRWRPPRLPRPRPRPYWWPRP &field=shrunken log2 fold change returns -0.0939

Item: RRIRNRPPRLPRPRPRPCMHPRP | shrunken log2 fold change: -0.0807

Given item RRIRFRPPRLPRPRPRPLMSPRP , the value recorded as its shrunken log2 fold change is -0.0355

So for RRIRPRPPRLPRPRPRPMSHPRP , the logged shrunken log2 fold change turned out to be 0.0914

Memo: RRIRHRPPRLPRPRPRPSIHPRP , reported shrunken log2 fold change: -0.924

###

- Test system: Escherichia coli TOP10
- Assay Comment: shrunken log2 fold change of peptide-encoding DNA abundance (4.5 h post-induction vs induction); higher = less antimicrobial activity (less host growth inhibition)
- Test Settings: time post-induction: 4.5 h; library: site-saturation at positions 5, 18, 19, 20
// map shrunken log2 fold change onto a label; ranges I = under -0.07, II = from -0.07 up to 0.06, III = 0.06 and over

Use these answered entries as a reference point.
Please indicate the class for RRIRRRPPRLPRPRPRPTTVPRP based on its shrunken log2 fold change. III

Please report the category associated with RRIRPRPPRLPRPRPRPKVDPRP , nothing else. III

Band of RRIRYRPPRLPRPRPRPGPHPRP ? I

Others:
Quick check: band for RRIRYRPPRLPRPRPRPVRCPRP III

###

- Test system: Escherichia coli TOP10;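 further: peptides expressed intracellularly from a pBAD plasmid library in pooled LB shake-flask culture, induced with 0.3% L-arabinose, DNA abundance read by NGS, three biological replicates, DESeq2 with apeglm shrinkage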
- Assay Comment: shrunken log2 fold change of peptide-encoding DNA abundance (4.5 h post-induction vs induction); higher = less antimicrobial activity (less host growth inhibition)
- Test Settings: time post-induction: 4.5 h; library: site-saturation at positions 5, 18, 19, 20
Observable: shrunken log2 fold change

Use these answered entries as a reference point.
response.value for RRIRTRPPRLPRPRPRPGLWPRP (field: shrunken log2 fold change) = 0.521

shrunken log2 fold change measured on RRIRRRPPRLPRPRPRPRVFPRP = 0.849

Briefly, shrunken log2 fold change measured for RRIRCRPPRLPRPRPRPEEFPRP : 0.0238

The sequence listed as RRIRMRPPRLPRPRPRPPKTPRP shows shrunken log2 fold change equal to 0.891

Looking up RRIRKRPPRLPRPRPRPAARPRP , I found its shrunken log2 fold change recorded as 0.742

Short answer for RRIRHRPPRLPRPRPRPAWDPRP : shrunken log2 fold change was -0.0216

get_value(item= RRIRERPPRLPRPRPRPYPEPRP , readout=shrunken log2 fold change) returns -0.918

Record RRIRIRPPRLPRPRPRPCWQPRP . Reported shrunken log2 fold change: -0.211

More entries:
Per the records, this sequence ( RRIRKRPPRLPRPRPRPELMPRP ) has shrunken log2 fold change equal to 1.24

The recorded shrunken log2 fold change for RRIRLRPPRLPRPRPRPRWFPRP is 0.602
